Listing of recorded pIC50 by entry.
- target.under.test: T1, schistosome legumain SmAE (Schistosoma mansoni asparaginyl endopeptidase) (Schistosoma mansoni), P09841
- T1 chain: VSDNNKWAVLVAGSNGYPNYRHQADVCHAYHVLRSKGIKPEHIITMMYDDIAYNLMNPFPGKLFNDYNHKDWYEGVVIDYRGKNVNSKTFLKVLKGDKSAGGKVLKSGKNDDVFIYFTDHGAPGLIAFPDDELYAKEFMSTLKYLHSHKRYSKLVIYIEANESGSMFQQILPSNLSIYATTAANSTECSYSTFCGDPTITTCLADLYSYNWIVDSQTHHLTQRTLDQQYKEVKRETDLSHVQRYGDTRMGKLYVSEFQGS
- experiment: cell-based or functional assay
Keep in mind that pIC50 stands for -log10 of concentration in molar terms.

Here are 2 binders together with their reported answers.
binder	measured.property	value.observed
AAN (modifications not checked) [Cbz-Ala-Ala-AAsn-CH═CH-CONH-Bzl-4-F]	pIC50	6.10
AAN (modifications not checked) [Cbz-Ala-Ala-AAsn-CH═CH-COOBzl]	pIC50	7.42

# return recorded pIC50 for input AAN (modifications not checked) [Cbz-Ala-Ala-AAsn-CH═CH-CON(Bzl)Ph]
7.15
